Origin of measurements: paper PMC6345774

target: T1, human MDM2 (residues 2–125) (human, UniProt Q00987 2-125); experiment: ITC; p53 peptide in the syringe titrated into MDM2 in the cell; Auto-iTC200; 15 °C; 50 mM Tris-HCl pH 8.0, 250 mM NaCl, 0.5 mM TCEP; settings: both partners purified
T1 construct: MDM2 (murine double minute 2), human, N-terminal domain, residues 2-125; no tag is named; also called N-terminal domain of MDM2
T1 sequence (Q00987 2-125): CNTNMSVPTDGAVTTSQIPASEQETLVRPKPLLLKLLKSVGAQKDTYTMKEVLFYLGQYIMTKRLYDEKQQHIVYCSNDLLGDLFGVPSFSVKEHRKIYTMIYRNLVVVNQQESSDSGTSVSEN
Log KA overview
Measurement Type: Log KA

Binder	Readout Value
Ac-EEFDDLWKLLPEN-NH2 (also called double phosphomimetic mutant) [Ac-EeFdDLWKLLPEN-NH2 (P53-E18-D20)]	4.69
Ac-EEFSDLWKLLPEN-NH2 [Ac-EeFSDLWKLLPEN-NH2 (P53-E18)]	5.15
Ac-ETFDDLWKLLPEN-NH2 [Ac-ETFdDLWKLLPEN-NH2 (P53-D20)]	5.24
Ac-EEFEDLWKLLPEN-NH2 [Ac-EeFeDLWKLLPEN-NH2 (P53-E18-E20)]	5.3
Ac-EDFSDLWKLLPEN-NH2 [Ac-EdFSDLWKLLPEN-NH2 (P53-D18)]	4.72
